meta.source: PubChem BioAssay AID608

This section presents compounds with their documented Kd values.
MEASURED_ON: Peptidyl-prolyl cis-trans isomerase FKBP1A (Homo sapiens) (UniProt P62942)
Sequence (P62942 whole entry, looked up): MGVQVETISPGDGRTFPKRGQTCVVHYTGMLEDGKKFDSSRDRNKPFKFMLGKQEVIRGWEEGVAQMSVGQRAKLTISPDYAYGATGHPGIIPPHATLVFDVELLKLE
ASSAY_NAME: small-molecule binding to FKBP12 – biophysical, NMR detection (AID 608)
REPORTED_CONDITIONS: purified FKBP12
The source made the active and inactive calls. No rule for the calls is given here.

compound=O=c1[nH]c(=O)c2[nH]cnc2[nH]1 assay_result="> 4 mM (inactive)"
compound=CCn1c(=O)cc(N2CCC3(CC2)OCCO3)[nH]c1=O assay_result="> 4 mM (inactive)"
compound="CC1Cc2nc(SCC(N)=O)n(C)c(=O)c2S1 (stereo not drawn)" assay_result="> 4 mM (inactive)"
compound=Cc1noc(C)c1C(=O)Nc1sc(C)c(C)c1C#N assay_result="> 4 mM (inactive)"
compound=CC(C)(C)NC(=O)CN1C(=O)c2ccccc2S1(=O)=O assay_result="> 4 mM (inactive)"
compound="CC(=O)O[C@H]1CCC2(C)C3=C(CCC2C1(C)C)[C@@]1(C)CC[C@@H](C(C)CCC=C(C)C)[C@]1(C)CC3 (stereo partly drawn)" assay_result="> 4 mM (inactive)"

Query O=C(O)CCCCC1SCC2NC(=O)NC21 (stereo not drawn) yields Kd of > 4 mM (inactive)

Query `O=P(c1ccccc1)(c1ccccc1)C1CCOCC1` yields Kd of > 4 mM (inactive)

Query `O=C1CSC(=Nc2ccc(F)cc2)N1` yields Kd of > 4 mM (inactive)

Query `c1ccc(CCc2nc(-c3ccncc3)no2)cc1` yields Kd of > 4 mM (inactive)

Query `Cc1cc(Cl)ccc1NC(=O)C(N)=O` yields Kd of > 4 mM (inactive)

Query `COc1ccc2[nH]cc(CCNC(C)=O)c2c1` yields Kd of > 4 mM (inactive)

Query `Cn1c(=O)cc(N2CCCCC2)[nH]c1=O` yields Kd of > 4 mM (inactive)
